Origin of the recorded values: ChEMBL document CHEMBL3232994

Reported MIC values are given for each entry in this list.
Tested on: Micrococcus luteus
Protocol summary: Antibacterial activity against Micrococcus luteus ATCC 9341 assessed as growth inhibition after 18 hrs by two-fold serial dilution method
Assay context: ATCC 9341, 18 h

Previously resolved entries follow.
Structure smiles string	Measurement label	Value reported
Cc1c2c3ccccc3nc-2n(C)c2ccc(NC(=O)[C@@H](N)Cc3cnc[nH]3)cc12.Cl	MIC	> 200 µg/mL
Cc1c2c3ccccc3nc-2n(C)c2ccc(NC(=O)CNC(=O)CN)cc12.Cl	MIC	> 200 µg/mL

Data request: Given the molecule Cc1c2c3cc(NC(=O)[C@@H](N)Cc4cnc[nH]4)ccc3nc-2n(C)c2ccccc12.Cl , what is its reported MIC?
Data returned: > 200 µg/mL

* * *

Reported MIC values are given for each entry in this list.
Tested on: Candida albicans
Protocol summary: Antifungal activity against Candida albicans SN250 assessed as growth inhibition after 18 hrs by two-fold serial dilution method
Format: functional
Assay context: SN250, 18 h
Hi! Could you send only the number? It should be in µg/mL, unit omitted.

Structure smiles string	System tested	Value reported
Cc1c2c3ccccc3nc-2n(C)c2ccc(NC(=O)CN)cc12.Cl	Candida albicans	15.6

Data request: Given the compound Cc1c2c3ccccc3nc-2n(C)c2ccc(NC(=O)[C@@H](N)Cc3cnc[nH]3)cc12.Cl , what is its reported MIC?
Data returned: 250

Data request: Cool, now Cc1c2c3cc(NC(=O)[C@@H]4CCCN4)ccc3nc-2n(C)c2ccccc12.Cl.Cl
Data returned: 200

Data request: Cool, now Cc1c2c3ccccc3nc-2n(C)c2ccc(NC(=O)[C@@H]3CCCN3)cc12.Cl
Data returned: 31.2
